biological target: Cysteine protease ATG4B (Homo sapiens) (UniProt Q9Y4P1); assay: ATG4B protease inhibitors, primary screen, biochemical, fluorescence, uHTS (AID 504462); details: ATG4B cleavage of LC3-PLA2, NBD-HPC fluorescence, 1 h; at 8.33 µM
Sequence (Q9Y4P1 whole entry, looked up): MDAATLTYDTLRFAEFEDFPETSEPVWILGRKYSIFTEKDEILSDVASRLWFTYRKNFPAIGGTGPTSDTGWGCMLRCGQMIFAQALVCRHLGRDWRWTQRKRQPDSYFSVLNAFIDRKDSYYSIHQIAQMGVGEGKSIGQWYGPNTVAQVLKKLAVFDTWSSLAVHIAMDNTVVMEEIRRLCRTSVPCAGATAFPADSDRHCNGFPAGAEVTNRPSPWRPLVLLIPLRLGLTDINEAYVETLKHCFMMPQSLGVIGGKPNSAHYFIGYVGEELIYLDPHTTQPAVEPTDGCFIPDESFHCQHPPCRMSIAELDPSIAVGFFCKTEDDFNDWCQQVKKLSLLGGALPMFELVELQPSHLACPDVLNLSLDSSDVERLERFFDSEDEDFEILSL
Screen size: about 340,000 compounds; about 1,700 (0.5%) were called active. Cut-off read from the data, not from the text of the source: active = inhibition above about 40%; inactive = the rest. Only a selection was taken, and actives are over-represented in it overall.
Outcomes: active, inactive

[[record]]
entry_smiles = "O=C(c1ccc(S(=O)(=O)N2CCCC2)cc1)N1CCN(c2ccccc2F)CC1"
group = "inactive"

[[record]]
entry_smiles = "COCCCNC(=O)C1CCN(c2ccc(N3CCOCC3)nn2)CC1"
group = "inactive"

[[record]]
entry_smiles = "CC(C)(C)c1ccc(C(=O)NCc2ccco2)cc1"
group = "inactive"

[[record]]
entry_smiles = "O=C(COC(=O)c1cccs1)NCc1cccs1"
group = "inactive"

[[record]]
entry_smiles = "Cc1cccc(NC(=S)NCCc2ccc(Cl)cc2)c1C"
group = "active"

[[record]]
entry_smiles = "CCC[C@@H]1C[C@@]1(CCC)[C@@H](NC(=O)c1ccccc1)c1ccc(C(=O)OC)cc1"
group = "inactive"

[[record]]
entry_smiles = "COc1ccc(-n2nc3c(c2NC(=O)c2ccc(N4C(=O)CCC4=O)cc2)CSC3)cc1"
group = "inactive"

[[record]]
entry_smiles = "CCCn1c(C)cc(-c2csc(NC(=O)CCc3nc4ccccc4c(=O)[nH]3)n2)c1C"
group = "inactive"

[[record]]
entry_smiles = "O=S(=O)(c1ccc(F)cc1)N1CCN(C(=S)NCc2ccco2)CC1"
group = "inactive"

[[record]]
entry_smiles = "O=C(Nc1cccc(Cl)c1N1CCOCC1)c1cccnc1"
group = "inactive"

[[record]]
entry_smiles = "Cc1ccc(-c2cc(C(=O)N3CCc4ccccc4C3)no2)cc1"
group = "active"

[[record]]
entry_smiles = "O=C(COC(=O)c1cc2c(s1)CCCC2)NCc1ccccc1Cl"
group = "active"

[[record]]
entry_smiles = "O=C(COC(=O)c1ccc2c(c1)OCCO2)NCc1ccccc1Cl"
group = "inactive"

[[record]]
entry_smiles = "CN1CCN(Cc2nc3cc(NC(=O)COc4ccc([N+](=O)[O-])cc4)ccc3n2C)CC1"
group = "inactive"

[[record]]
entry_smiles = "CCN(CC)S(=O)(=O)c1ccc2c3c(cccc13)C(=O)S2"
group = "inactive"

[[record]]
entry_smiles = "CN(C)C(=O)c1ccc(NC(=O)COC(=O)c2cc3c(s2)CCCCC3)cc1"
group = "inactive"

[[record]]
entry_smiles = "O=C(c1cc(-c2cccc(O)c2)on1)N1CCc2ccccc2C1"
group = "inactive"

[[record]]
entry_smiles = "O=C(Nc1ccccc1Cl)N1CCN(c2ccc3nncn3n2)CC1"
group = "inactive"

[[record]]
entry_smiles = "Cn1cccc1C(=O)N1CCc2ccccc2C1"
group = "inactive"

[[record]]
entry_smiles = "O=C(c1ccc(OC2CCN(C(=O)c3cccnc3)CC2)cc1)N1CCCCCC1"
group = "inactive"

[[record]]
entry_smiles = "O=C(NCCS(=O)(=O)N1CCN(c2ccccc2F)CC1)c1ccc(Br)o1"
group = "inactive"

[[record]]
entry_smiles = "Cc1ccc(C(=O)Nc2c(C#N)c(C)c(C)n2Cc2ccccc2)cc1"
group = "inactive"

[[record]]
entry_smiles = "O=C(COC(=O)/C(=C/c1cccs1)c1cccs1)NCc1ccccc1Cl"
group = "active"

